compounds and their reported viability at 96 h, 2 µM
Assay Protocol: Cytotoxicity against ICR mouse osteoblast like cells assessed as cell viability at 2 uM after 4 days drug removal after 2 days by MTT assay relative to control
Type: cell-based
Condition: read-out: Activity
Readout: viability at 96 h, 2 µM (%)

{"Chemical String": "COC(=O)CNC(=O)[C@]12CCC(C)(C)C[C@H]1C1=CC[C@@H]3[C@@]4(C)CCC(=O)C(C)(C)[C@@H]4CC[C@@]3(C)[C@]1(C)CC2", "Readout": "viability at 96 h, 2 µM", "Value": 141}
{"Chemical String": "CC[C@H](C)[C@H](NC(=O)[C@]12CCC(C)(C)C[C@H]1C1=CC[C@@H]3[C@@]4(C)Cc5nccnc5C(C)(C)[C@@H]4CC[C@@]3(C)[C@]1(C)CC2)C(=O)O", "Readout": "viability at 96 h, 2 µM", "Value": 109}
{"Chemical String": "CC1(C)CC[C@]2(C(=O)O)CC[C@]3(C)C(=CC[C@@H]4[C@@]5(C)Cc6c([nH]c7ccc(Cl)cc67)C(C)(C)[C@@H]5CC[C@]43C)[C@@H]2C1", "Readout": "viability at 96 h, 2 µM", "Value": 132}

###

Assay Protocol: Cytotoxicity against ICR mouse osteoblast like cells assessed as cell viability at 2 uM after 4 days drug removal after 2 days by MTT assay relative to control
Format: cell-based
Condition: read-out: Activity
Readout: viability at 96 h, 2 µM

{"Chemical String": "CC1(C)CC[C@]2(C(=O)O)CC[C@]3(C)C(=CC[C@@H]4[C@@]5(C)Cc6cc7ccccc7nc6C(C)(C)[C@@H]5CC[C@]43C)[C@@H]2C1", "Readout": "viability at 96 h, 2 µM", "Value": "134%"}
{"Chemical String": "COC(=O)[C@@H](NC(=O)[C@]12CCC(C)(C)C[C@H]1C1=CC[C@@H]3[C@@]4(C)Cc5nccnc5C(C)(C)[C@@H]4CC[C@@]3(C)[C@]1(C)CC2)C(C)C", "Readout": "viability at 96 h, 2 µM", "Value": "142%"}
{"Chemical String": "CC(C)[C@H](NC(=O)[C@]12CCC(C)(C)C[C@H]1C1=CC[C@@H]3[C@@]4(C)Cc5nc6ccccc6nc5C(C)(C)[C@@H]4CC[C@@]3(C)[C@]1(C)CC2)C(=O)O", "Readout": "viability at 96 h, 2 µM", "Value": "128%"}
